Entries annotated with measured pIC50
- System: pSTAT3 (pY705-STAT3) (Homo sapiens, UniProt P40763)
- Construct: host or cells: cryopreserved PBMC
- Sequence (P40763 whole entry): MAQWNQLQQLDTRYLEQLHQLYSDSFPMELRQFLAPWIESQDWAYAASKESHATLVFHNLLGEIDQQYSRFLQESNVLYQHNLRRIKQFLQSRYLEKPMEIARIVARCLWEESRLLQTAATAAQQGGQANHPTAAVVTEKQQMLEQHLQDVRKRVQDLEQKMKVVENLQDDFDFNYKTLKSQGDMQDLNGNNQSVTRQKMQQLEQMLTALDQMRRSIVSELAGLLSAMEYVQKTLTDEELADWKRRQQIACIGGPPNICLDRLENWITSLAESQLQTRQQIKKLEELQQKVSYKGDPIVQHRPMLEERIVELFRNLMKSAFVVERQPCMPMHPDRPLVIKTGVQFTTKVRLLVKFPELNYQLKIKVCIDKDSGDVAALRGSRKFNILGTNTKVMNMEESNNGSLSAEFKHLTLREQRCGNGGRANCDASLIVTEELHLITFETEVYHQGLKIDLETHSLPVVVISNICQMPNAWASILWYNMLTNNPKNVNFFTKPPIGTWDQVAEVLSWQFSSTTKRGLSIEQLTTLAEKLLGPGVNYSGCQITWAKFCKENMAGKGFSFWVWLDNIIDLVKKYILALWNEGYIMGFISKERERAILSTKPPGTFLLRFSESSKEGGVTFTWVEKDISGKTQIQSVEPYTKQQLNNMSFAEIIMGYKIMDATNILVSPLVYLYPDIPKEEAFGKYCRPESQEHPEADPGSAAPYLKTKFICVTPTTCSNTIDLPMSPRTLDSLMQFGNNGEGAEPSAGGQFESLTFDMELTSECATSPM
- Test method notes: MSD-pSTAT-PBMC Assay (pSTAT3, IL-6 stimulated)
- Type: cell-based
- Experimental context: PBMC, compound 3 hrs, then 10 ng/mL IL-6 for 10 min; MSD pY705-STAT3; read-out: pSTAT3
pIC50: −log10 of the molar value.

- Compound: "CC(C)(C)C(=O)SCCOP(=O)(Cc1ccc2sc(C(=O)N[C@H]3C[C@H]4C[C@H]4C[C@H]4CC[C@@H](C(=O)N5CC(c6cccnc6)C5)N4C3=O)cc2c1)OCCSC(=O)C(C)(C)C"
  System: "pSTAT3 (pY705-STAT3) (Homo sapiens, UniProt P40763)"
  pIC50: "6.00 to 7.00"
- Compound: "CCCOC(=O)[C@H](C)NP(=O)(Oc1ccccc1)C(F)c1ccc2sc(C(=O)N[C@H]3C[C@H]4C[C@H]4C[C@H]4CC[C@@H](C(=O)N5CC(c6nncn6C)C5)N4C3=O)cc2c1 (stereo partly drawn)"
  System: "pSTAT3 (pY705-STAT3) (Homo sapiens, UniProt P40763)"
  pIC50: "< 5.52"
- Compound: "CC(C)(C)C(=O)SCCOP(=O)(Cc1ccc2sc(C(=O)N[C@H]3C[C@@H]4C[C@@H]4C[C@H]4CC[C@@H](C(=O)N5CC(C(=O)N6CCOCC6)C5)N4C3=O)cc2c1)OCCSC(=O)C(C)(C)C"
  System: "pSTAT3 (pY705-STAT3) (Homo sapiens, UniProt P40763)"
  pIC50: "6.00 to 7.00"
- Compound: "C[C@@H](NP(=O)(Cc1ccc2sc(C(=O)N[C@H]3C[C@@H]4C[C@@H]4C[C@H]4CC[C@@H](C(=O)N5CC(C(=O)N6CCOCC6)C5)N4C3=O)cc2c1)Oc1ccccc1)C(=O)OCc1ccccc1 (stereo partly drawn)"
  System: "pSTAT3 (pY705-STAT3) (Homo sapiens, UniProt P40763)"
  pIC50: "6.00 to 7.00"
- Compound: "CCCOC(=O)[C@H](C)NP(=O)(Oc1ccccc1)C(F)c1ccc2sc(C(=O)N[C@H]3C[C@H]4C[C@H]4C[C@H]4CC[C@@H](C(=O)N[C@H]5CN(c6cccnc6)C[C@@H]5F)N4C3=O)cc2c1 (stereo partly drawn)"
  System: "pSTAT3 (pY705-STAT3) (Homo sapiens, UniProt P40763)"
  pIC50: "> 7.00"
- Compound: "O=C(OCOP(=O)(Cc1ccc2sc(C(=O)N[C@H]3C[C@H]4C[C@H]4C[C@H]4CC[C@@H](C(=O)N5CC(c6cccnc6)C5)N4C3=O)cc2c1)OCOC(=O)OC1CCOCC1)OC1CCOCC1"
  System: "pSTAT3 (pY705-STAT3) (Homo sapiens, UniProt P40763)"
  pIC50: "> 7.00"
- Compound: "CC(C)(C)C(=O)SCCOP(=O)(OCCSC(=O)C(C)(C)C)C(F)(F)c1ccc2sc(C(=O)N[C@H]3C[C@@H]4C[C@@H]4C[C@H]4CC[C@@H](C(=O)N5CC(c6ccccn6)C5)N4C3=O)cc2c1"
  System: "pSTAT3 (pY705-STAT3) (Homo sapiens, UniProt P40763)"
  pIC50: "> 7.00"
- Compound: "CCCOC(=O)[C@H](C)NP(=O)(Oc1ccccc1)C(F)c1ccc2sc(C(=O)N[C@H]3C[C@@H]4C[C@@H]4C[C@H]4CC[C@@H](C(=O)N5CC(c6cnccc6F)C5)N4C3=O)cc2c1 (stereo partly drawn)"
  System: "pSTAT3 (pY705-STAT3) (Homo sapiens, UniProt P40763)"
  pIC50: "> 7.00"
- Compound: "C[C@H](NP(=O)(Oc1ccccc1)C(F)(F)c1ccc2sc(C(=O)N[C@H]3C[C@@H]4C[C@@H]4C[C@H]4CC[C@@H](C(=O)N5CC(C(=O)N6CCOCC6)C5)N4C3=O)cc2c1)C(=O)OCc1ccccc1 (stereo partly drawn)"
  System: "pSTAT3 (pY705-STAT3) (Homo sapiens, UniProt P40763)"
  pIC50: "5.52 to 6.00"

Reference source for all entries: patent US20250215030A1
